The origin of these recorded values is ChEMBL document CHEMBL4513216.

System: Plasmodium berghei
Test: Screen against P. berghei liver stage (PbLuc), transformed with Luciferase, at 10uM
Assay type: functional, HepG2
Settings: tested at 10 uM
Among all 69,000 compounds or so, about 8,600 (12%) showed an effect of 50% or more. Only a selection was taken, and strong results are over-represented in it overall.
Class key for INHIBITION values: low = under 10%, middle = from 10% up to 30%, high = 30% and over

>>> class_label("N#Cc1cccnc1N1CCC(C2CCCCCN2C(N)=O)CC1 (stereo not given)")
"low"
>>> class_label("Cc1nn(CC(C)C)c(C)c1CC(=O)N1CCCC(NS(C)(=O)=O)C1 (stereo not given)")
"middle"
>>> class_label("Cc1cnc(C)c(N2CC[C@H](N3CCOCC3)[C@H](CCCO)C2)n1")
"low"
>>> class_label("Cc1nn(C)c(C)c1C(C)NCc1ccsc1 (stereo not given)")
"low"
>>> class_label("COc1cccc(CN2C[C@@H]3CC[C@@](O)(c4ccccn4)[C@@H]3C2)c1OC")
"middle"
>>> class_label("CCOc1ncccc1NC(=O)C1CCS(=O)(=O)C1 (stereo not given)")
"middle"
>>> class_label("CC(Cn1ccnc1)NC(=O)NCc1cccnc1OC1CCCC1 (stereo not given)")
"middle"
>>> class_label("COCCc1noc(CN2CCOC(Cn3nc(C)cc3C)C2)n1 (stereo not given)")
"middle"
>>> class_label("NC(=O)CSc1nccc(-c2ccc3c(c2)OCO3)n1")
"low"
>>> class_label("COC(=O)c1cccc(C2CNCCN2C)c1 (stereo not given)")
"high"
>>> class_label("Cc1cc(C)n(-c2ccc(C(C)NS(=O)(=O)CCCS(C)(=O)=O)cc2)n1 (stereo not given)")
"high"
>>> class_label("O=C(O)c1cnc(N2CCC(c3nccn3CC3CC3)CC2)c(Cl)c1")
"middle"
>>> class_label("O=C(Cc1cccnc1)N1CCC(OCc2ccccc2)CC1")
"low"
>>> class_label("Cn1cc(N2C(=O)CC[C@@H]3[C@H]2CCN3Cc2nccs2)cn1")
"middle"
>>> class_label("O=C(NC[C@H]1OC[C@@H]2CCN(Cc3ccco3)C[C@@H]21)c1ccsc1")
"middle"
>>> class_label("O=C(c1cccs1)N1CC[C@@H]2[C@H]1CCC(=O)N2c1ccccc1")
"high"
>>> class_label("C1CC(NCC2CC2)CN(Cc2noc(C3CC3)n2)C1 (stereo not given)")
"middle"
>>> class_label("O[C@@]1(c2ccccn2)CC[C@H]2CN(Cc3cccc(Cl)c3Cl)C[C@H]21")
"high"
>>> class_label("CN(C)C(=O)c1nn(C)c2c1CN(Cc1ccc(F)cc1)C2")
"high"
>>> class_label("COC(=O)C(C)(C)S(=O)(=O)c1ccc(Br)cc1")
"low"
>>> class_label("CN(C)CCCNC(=O)c1nnsc1-c1ccccc1")
"middle"
>>> class_label("O=C(c1cnccn1)N1CC[C@H]2[C@@H]1CCC(=O)N2c1cccnc1")
"middle"
>>> class_label("Cc1cccnc1[C@]1(O)CC[C@H]2CN(Cc3cccc(Cl)c3Cl)C[C@H]21")
"middle"
>>> class_label("Cn1ccc(C(=O)NCCOc2ccc3c(c2)CCC3)cc1=O")
"low"
>>> class_label("Cc1cnc(N2CC[C@H]3[C@@H]2CCC(=O)N3c2ccccc2)nc1")
"low"
>>> class_label("O=S(=O)(CCCNCCn1cccn1)c1ccccc1")
"low"
>>> class_label("O=C(C1CCOCC1)N1CCC(OCc2cccnc2)CC1")
"high"
>>> class_label("NC(=O)N1CCCCCC1C1CCN(c2nccc(C(F)(F)F)n2)CC1 (stereo not given)")
"high"
>>> class_label("Cc1ccc([C@]2(O)CC[C@H]3CN(Cc4cccc(F)c4F)C[C@H]32)nc1")
"middle"
>>> class_label("CC(C)N1CCC(Cc2cc(-c3cccc(C(=O)O)c3)ncn2)CC1")
"middle"
>>> class_label("CCCn1c(C)c(CC(=O)NCCOC)c2c1CC(C)(C)CC2=O")
"low"
>>> class_label("O=C1CC[C@H]2[C@H](CCN2c2ncccn2)N1c1ccccc1")
"high"
>>> class_label("COc1ccccc1C(O)CNC(=O)Nc1ccccn1 (stereo not given)")
"high"
>>> class_label("O=C(C1CCOC1)N1CCC(OCc2ccccc2)CC1 (stereo not given)")
"high"
>>> class_label("Cn1cc(NC(=O)CNC(=O)N2CCN(c3ccccc3)CC2)cn1")
"middle"
>>> class_label("O=C1CC[C@H]2[C@H](CCN2c2ncc(F)cn2)N1c1ccccc1")
"high"
>>> class_label("Cc1nnc(N2CCOC(C)(C(=O)NC3CCCC3)C2)c2ccccc12 (stereo not given)")
"low"
>>> class_label("CN(C)C(=O)CO[C@H]1CN(Cc2ccoc2)[C@@H]2COC[C@H]12")
"high"
>>> class_label("COc1cccc(CNC(=O)CC2CSc3nc(C)c(C)c(=O)n32)c1 (stereo not given)")
"middle"
>>> class_label("CCCC(=O)N1CCCCC1C(=O)Nc1ccc(-c2nnc[nH]2)cc1 (stereo not given)")
"middle"
>>> class_label("CN(CC(=O)N1CCC(OCc2cccnc2)CC1)c1ccccc1")
"low"
>>> class_label("Cc1cccc(C2(C(=O)NS(=O)(=O)c3cnn(C)c3)CCCC2)c1")
"high"
>>> class_label("O=C(c1ccnnc1)N1C[C@@H](OCc2cccnc2)[C@H]2OCCC[C@H]21")
"high"
>>> class_label("CN(C)C(=O)C1CSCN1C(=O)CCc1ccco1 (stereo not given)")
"low"
